Source of measurements: paper PMC3836994

Reduction in ookinete viability by entry:
- Tested on: P. berghei ookinetes
- PROCEDURE TEXT: P. berghei ookinete viability in vitro (erythrosin B)
- Assay type: cell-based, Plasmodium berghei
- MEASUREMENT SETUP: 50 µM of single peptide; 30 min; versus control
No end group written: not given here.
MEASUREMENT NAME: Reduction in ookinete viability (%)

* KFPKFRRGIPFLFVGPSGKFPKFRRGIPFLFV [Vida 3 dimer] | 96
* CKQSCSFGPFTFVCDGNTK (also: bicyclic or more (positions not given here)) [Duramycin, A lantibiotic from bacteria, 19 aa (Sigma D3168)] | 88
* GLLKRIKTLL [Anoplin, 10 aa peptide isolated from the solitary wasp, homology to Mastoparan X] | 89
* AGYLLGKINLKALAALAKKILGGAGYLLGKINLKALAALAKKIL [TP10 dimer, TP10 (dimer)] | 100
